# experimentSummary: Biodistribution experiments in normal mice after i.v. injection
# Assay type: in vivo
# assaySetup: male, ddY, mouse, in vivo, iv, total radioactivity, Biodistribution of radioactivity, Heart
Where a SMILES comes first, the peptide text is derived from it. [ ]: non-standard residue; d: D form. The star is where a group is joined. DOTA = O=C(O)CN1CCN(CC(=O)O)CCN(CC(=O)*)CCN(CC(=O)O)CC1
measuredQuantity: tissue uptake dose at 3 h (%ID)
Dear colleague, please return just the value in %ID, with no unit written.

Take a look at these entries with their results.
Q) Recorded tissue uptake dose at 3 h of O=C(O)CC[C@@H](NC(=O)[C@@H](CCC(=O)O)NC(=O)[C@@H](CCC(=O)O)NC(=O)[C@@H](CCC(=O)O)NC(=O)[C@@H](CCC(=O)O)NC(=O)[C@@H](CCC(=O)O)NC(=O)[C@@H](CCC(=O)O)NC(=O)[C@@H](CCC(=O)O)NC(=O)[C@@H](CCC(=O)O)NC(=O)[C@@H](CCC(=O)O)NC(=O)[C@@H](CCC(=O)O)NC(=O)[C@@H](CCC(=O)O)NC(=O)[C@@H](CCC(=O)O)NC(=O)[C@@H](CCC(=O)O)NC(=O)CN1CCN(CC(=O)O)CCN(CC(=O)O)CCN(CC(=O)O)CC1)C(=O)O [^67Ga-DOTA-(D-Glu)14, metal not drawn] , please.
A) 0.05

Q) Recorded tissue uptake dose at 3 h of O=C(O)C[C@@H](NC(=O)[C@@H](CC(=O)O)NC(=O)CN1CCN(CC(=O)O)CCN(CC(=O)O)CCN(CC(=O)O)CC1)C(=O)O [^67Ga-DOTA-(D-Asp)2, metal not drawn] ({DOTA}-[dD]-[dD]-OH) , please.
A) 0.06

# input for lookup
Q) Recorded tissue uptake dose at 3 h of O=C(O)CC[C@H](NC(=O)[C@H](CCC(=O)O)NC(=O)[C@H](CCC(=O)O)NC(=O)[C@H](CCC(=O)O)NC(=O)[C@H](CCC(=O)O)NC(=O)[C@H](CCC(=O)O)NC(=O)[C@H](CCC(=O)O)NC(=O)[C@H](CCC(=O)O)NC(=O)[C@H](CCC(=O)O)NC(=O)[C@H](CCC(=O)O)NC(=O)[C@H](CCC(=O)O)NC(=O)[C@H](CCC(=O)O)NC(=O)[C@H](CCC(=O)O)NC(=O)[C@H](CCC(=O)O)NC(=O)CN1CCN(CC(=O)O)CCN(CC(=O)O)CCN(CC(=O)O)CC1)C(=O)O [^67Ga-DOTA-(L-Glu)14, metal not drawn] , please.
A) 0.06

---

# experimentSummary: Biodistribution experiments in normal mice after i.v. injection
# Format: in vivo
# assaySetup: male, ddY, mouse, in vivo, iv, total radioactivity, mice, i.v., 180 min after injection, mean (SD); read-out: Biodistribution of radioactivity, Blood
Where a SMILES comes first, the peptide text is derived from it. [ ]: non-standard residue; d: D form. The star is where a group is joined. DOTA = O=C(O)CN1CCN(CC(=O)O)CCN(CC(=O)*)CCN(CC(=O)O)CC1
measuredQuantity: tissue uptake dose at 3 h (%ID)
Dear colleague, please return just the value in %ID, with no unit written.

Q) Recorded tissue uptake dose at 3 h of O=C(O)C[C@@H](NC(=O)[C@@H](CC(=O)O)NC(=O)[C@@H](CC(=O)O)NC(=O)[C@@H](CC(=O)O)NC(=O)[C@@H](CC(=O)O)NC(=O)[C@@H](CC(=O)O)NC(=O)[C@@H](CC(=O)O)NC(=O)[C@@H](CC(=O)O)NC(=O)[C@@H](CC(=O)O)NC(=O)[C@@H](CC(=O)O)NC(=O)[C@@H](CC(=O)O)NC(=O)CN1CCN(CC(=O)O)CCN(CC(=O)O)CCN(CC(=O)O)CC1)C(=O)O [^67Ga-DOTA-(D-Asp)11, metal not drawn] ({DOTA}-[dD][dD][dD][dD][dD][dD][dD][dD][dD][dD][dD]-OH) , please.
A) 0.08

---

# experimentSummary: Biodistribution experiments in normal mice after i.v. injection
# Assay type: in vivo
# assaySetup: male, ddY, mouse, in vivo, iv, total radioactivity, Biodistribution of radioactivity, Blood
Where a SMILES comes first, the peptide text is derived from it. [ ]: non-standard residue; d: D form. The star is where a group is joined. DOTA = O=C(O)CN1CCN(CC(=O)O)CCN(CC(=O)*)CCN(CC(=O)O)CC1
measuredQuantity: tissue uptake dose at 1 h (%ID)
Dear colleague, please return just the value in %ID, with no unit written.

Q) Recorded tissue uptake dose at 1 h of O=C(O)CC[C@H](NC(=O)[C@H](CCC(=O)O)NC(=O)[C@H](CCC(=O)O)NC(=O)[C@H](CCC(=O)O)NC(=O)[C@H](CCC(=O)O)NC(=O)[C@H](CCC(=O)O)NC(=O)[C@H](CCC(=O)O)NC(=O)[C@H](CCC(=O)O)NC(=O)[C@H](CCC(=O)O)NC(=O)[C@H](CCC(=O)O)NC(=O)[C@H](CCC(=O)O)NC(=O)[C@H](CCC(=O)O)NC(=O)[C@H](CCC(=O)O)NC(=O)[C@H](CCC(=O)O)NC(=O)CN1CCN(CC(=O)O)CCN(CC(=O)O)CCN(CC(=O)O)CC1)C(=O)O [^67Ga-DOTA-(L-Glu)14, metal not drawn] , please.
A) 0.12

# input for lookup
Q) Recorded tissue uptake dose at 1 h of O=C(O)C[C@@H](NC(=O)[C@@H](CC(=O)O)NC(=O)[C@@H](CC(=O)O)NC(=O)[C@@H](CC(=O)O)NC(=O)[C@@H](CC(=O)O)NC(=O)[C@@H](CC(=O)O)NC(=O)[C@@H](CC(=O)O)NC(=O)[C@@H](CC(=O)O)NC(=O)CN1CCN(CC(=O)O)CCN(CC(=O)O)CCN(CC(=O)O)CC1)C(=O)O [^67Ga-DOTA-(D-Asp)8, metal not drawn] ({DOTA}-[dD][dD][dD][dD][dD][dD][dD][dD]-OH) , please.
A) 0.33

---

# experimentSummary: Biodistribution experiments in normal mice after i.v. injection
# Format: in vivo
# assaySetup: male, ddY, mouse, in vivo, iv, total radioactivity, Biodistribution of radioactivity, Heart
Where a SMILES comes first, the peptide text is derived from it. [ ]: non-standard residue; d: D form. The star is where a group is joined. DOTA = O=C(O)CN1CCN(CC(=O)O)CCN(CC(=O)*)CCN(CC(=O)O)CC1
Listing of recorded tissue uptake dose at 10 min by entry.
Dear colleague, please return just the value in %ID, with no unit written.

Q) Recorded tissue uptake dose at 10 min of O=C(O)C[C@@H](NC(=O)[C@@H](CC(=O)O)NC(=O)[C@@H](CC(=O)O)NC(=O)[C@@H](CC(=O)O)NC(=O)[C@@H](CC(=O)O)NC(=O)[C@@H](CC(=O)O)NC(=O)[C@@H](CC(=O)O)NC(=O)[C@@H](CC(=O)O)NC(=O)CN1CCN(CC(=O)O)CCN(CC(=O)O)CCN(CC(=O)O)CC1)C(=O)O [^67Ga-DOTA-(D-Asp)8, metal not drawn] ({DOTA}-[dD][dD][dD][dD][dD][dD][dD][dD]-OH) , please.
A) 0.63

# input for lookup
Q) Recorded tissue uptake dose at 10 min of O=C(O)CC[C@@H](NC(=O)[C@@H](CCC(=O)O)NC(=O)[C@@H](CCC(=O)O)NC(=O)[C@@H](CCC(=O)O)NC(=O)[C@@H](CCC(=O)O)NC(=O)[C@@H](CCC(=O)O)NC(=O)[C@@H](CCC(=O)O)NC(=O)[C@@H](CCC(=O)O)NC(=O)[C@@H](CCC(=O)O)NC(=O)[C@@H](CCC(=O)O)NC(=O)[C@@H](CCC(=O)O)NC(=O)[C@@H](CCC(=O)O)NC(=O)[C@@H](CCC(=O)O)NC(=O)[C@@H](CCC(=O)O)NC(=O)CN1CCN(CC(=O)O)CCN(CC(=O)O)CCN(CC(=O)O)CC1)C(=O)O [^67Ga-DOTA-(D-Glu)14, metal not drawn] , please.
A) 0.79

---

# experimentSummary: Biodistribution experiments in normal mice after i.v. injection
# Assay type: in vivo
# assaySetup: male, ddY, mouse, in vivo, iv, total radioactivity, mice, i.v., 10 min after injection, mean (SD); read-out: Biodistribution of radioactivity, Lung
Where a SMILES comes first, the peptide text is derived from it. [ ]: non-standard residue; d: D form. The star is where a group is joined. DOTA = O=C(O)CN1CCN(CC(=O)O)CCN(CC(=O)*)CCN(CC(=O)O)CC1
measuredQuantity: tissue uptake dose at 10 min (%ID)
Dear colleague, please return just the value in %ID, with no unit written.

Q) Recorded tissue uptake dose at 10 min of O=C(O)C[C@@H](NC(=O)[C@@H](CC(=O)O)NC(=O)[C@@H](CC(=O)O)NC(=O)[C@@H](CC(=O)O)NC(=O)[C@@H](CC(=O)O)NC(=O)[C@@H](CC(=O)O)NC(=O)[C@@H](CC(=O)O)NC(=O)[C@@H](CC(=O)O)NC(=O)[C@@H](CC(=O)O)NC(=O)[C@@H](CC(=O)O)NC(=O)[C@@H](CC(=O)O)NC(=O)CN1CCN(CC(=O)O)CCN(CC(=O)O)CCN(CC(=O)O)CC1)C(=O)O [^67Ga-DOTA-(D-Asp)11, metal not drawn] ({DOTA}-[dD][dD][dD][dD][dD][dD][dD][dD][dD][dD][dD]-OH) , please.
A) 1.24
